Reference for the values: patent US20240174690A1

Tested on: NCI-H2122 cells
Assay: NCI-H2122 CTG proliferation assay (120 h) (NSCLC, G12C)
Format: cell-based
Conditions: Homo sapiens
Recorded IC50 by entry
Give the value, in units of nM, as a plain number.

Recorded result, C[C@H](Oc1cc(-c2cccc(C(N)=O)c2)nc(-c2noc3c2CCC[C@@]32CCCc3sc(N)c(C#N)c32)n1)[C@@H]1CCCN1C [II-133] , IC50: 180

Noted for C[C@H](Oc1cc(N2CCNC3(CC3)C2)nc(-c2onc3c2CCC[C@@]32CCCc3sc(N)c(C#N)c32)n1)[C@@H]1CCCN1C [I-5] : its IC50 reads 2420

Kindly note the recorded IC50 for C[C@H](Oc1cc(-c2ccc(N)nc2)nc(-c2onc3c2CCC[C@@]32CCCc3sc(N)c(C#N)c32)n1)[C@@H]1CCCN1C [I-25] , which is 1650

IC50 measured on C[C@H](Oc1cc(-c2cnsc2)nc(-c2onc3c2CCC[C@@]32CCCc3sc(N)c(C#N)c32)n1)[C@@H]1CCCN1C [I-27] = 599

Memo: CO[C@@H]1C[C@@H]([C@H](C)Oc2cc(-c3cnn(C)n3)nc(-c3noc4c3CCC[C@@]43CCCc4sc(N)c(C#N)c43)n2)N(C)C1 [II-62] , reported IC50: 4790

Please fill in: IC50 reported for C[C@H](Oc1cc(-c2cnn(C)n2)nc(-c2noc3c2CCC[C@@]32CCCc3sc(N)c(C#N)c32)n1)[C@@H]1C[C@@H](F)CN1C [II-28] = 9480

---

Assay: Solubility measurement (DMSO solution method), McIlvaine buffer pH 4.5 or 6.8
Assay type: physicochemical
Conditions: aqueous buffer, kinetic from dmso stock; McIlvaine buffer pH 6.8; DMSO stock diluted to 250 μM; 24 h shaking at ambient temperature; read-out: solubility pH 6.8
Measured solubility at 24 h by item
Report only the number, with the unit µg/mL understood.

Guide cases for solubility at 24 h, answers given:
COCCNC(=O)c1ccn(-c2cc(O[C@@H](C)[C@@H]3CCCN3C)nc(-c3noc4c3CCC[C@@]43CCCc4sc(N)c(C#N)c43)n2)n1 [II-195] :: 71
C[C@H](Oc1cc(-n2cc3c(n2)CCN(C)C3)nc(-c2noc3c2CCC[C@@]32CCCc3sc(N)c(C#N)c32)n1)[C@@H]1CCCN1C [II-141] :: 83

Documented solubility at 24 h of C[C@H](Oc1cc(-c2ccn([C@H]3CCOC3)n2)nc(-c2noc3c2CCC[C@@]32CCCc3sc(N)c(C#N)c32)n1)[C@@H]1CCCN1C [II-127] : 39

---

Test system: SAS cells
Assay: SAS CTG proliferation assay (120 h) (HNSCC, wt amplified)
Type: cell-based
Measure: pIC50
Hey, just a heads up that pIC50 is the negative log base 10 of the concentration in molar.

Measured pIC50, C[C@H](NC(=O)c1ccn(-c2cc(O[C@@H](C)[C@@H]3CCCN3C)nc(-c3onc4c3CCC[C@@]43CCCc4sc(N)c(C#N)c43)n2)n1)c1ccccn1 [I-59] : 7.82

Reported pIC50 of C[C@H](Oc1nc(-c2noc3c2CCC[C@@]32CCCc3sc(N)c(C#N)c32)nc(N2CCNC3(CC3)C2)c1F)[C@@H]1C[C@@H](F)CN1C [II-155] : 6.33

Record summary for C[C@H](O)Cn1ncc(-c2cc(O[C@@H](C)[C@@H]3CCCN3C)nc(-c3noc4c3CCC[C@@]43CCCc4sc(N)c(C#N)c43)n2)n1 [II-134] : reported pIC50 = 7.46

Entry C[C@H](Oc1cc(-n2cc(Cn3cncn3)nn2)nc(-c2noc3c2CCC[C@@]32CCCc3sc(N)c(C#N)c32)n1)[C@@H]1CCCN1C [II-124] — recorded pIC50 = 7.17

The molecule identified as CO[C@@H]1C[C@@H]([C@H](C)Oc2cc(-c3cnn(C)n3)nc(-c3noc4c3CCC[C@@]43CCCc4sc(N)c(C#N)c43)n2)N(C)C1 [II-62] registered its pIC50 at 7.30

The recorded pIC50 for entry COC(=O)c1ccc(-c2cc(O[C@@H](C)[C@@H]3CCCN3C)nc(-c3noc4c3CCC[C@@]43CCCc4sc(N)c(C#N)c43)n2)o1 [II-114] equals 7.55

Form field pIC50, entry CO[C@@H]1C[C@@H]([C@H](C)Oc2cc(-c3cnn(C)n3)nc(-c3onc4c3CCC[C@@]43CCCc4sc(N)c(C#N)c43)n2)N(C)C1 [I-17] : 6.62

C[C@H](Oc1cc(N2CC[C@H](N(C)C)C2)nc(-c2noc3c2CCC[C@@]32CCCc3sc(N)c(C#N)c32)n1)[C@@H]1C[C@@H](F)CN1C [II-15] has a reported pIC50 of 5.89
